Data credit: patent US20250136578A1

study system: AR / CBP ternary complex (Homo sapiens, UniProt P10275+Q92793)
Sequence (P10275 whole entry): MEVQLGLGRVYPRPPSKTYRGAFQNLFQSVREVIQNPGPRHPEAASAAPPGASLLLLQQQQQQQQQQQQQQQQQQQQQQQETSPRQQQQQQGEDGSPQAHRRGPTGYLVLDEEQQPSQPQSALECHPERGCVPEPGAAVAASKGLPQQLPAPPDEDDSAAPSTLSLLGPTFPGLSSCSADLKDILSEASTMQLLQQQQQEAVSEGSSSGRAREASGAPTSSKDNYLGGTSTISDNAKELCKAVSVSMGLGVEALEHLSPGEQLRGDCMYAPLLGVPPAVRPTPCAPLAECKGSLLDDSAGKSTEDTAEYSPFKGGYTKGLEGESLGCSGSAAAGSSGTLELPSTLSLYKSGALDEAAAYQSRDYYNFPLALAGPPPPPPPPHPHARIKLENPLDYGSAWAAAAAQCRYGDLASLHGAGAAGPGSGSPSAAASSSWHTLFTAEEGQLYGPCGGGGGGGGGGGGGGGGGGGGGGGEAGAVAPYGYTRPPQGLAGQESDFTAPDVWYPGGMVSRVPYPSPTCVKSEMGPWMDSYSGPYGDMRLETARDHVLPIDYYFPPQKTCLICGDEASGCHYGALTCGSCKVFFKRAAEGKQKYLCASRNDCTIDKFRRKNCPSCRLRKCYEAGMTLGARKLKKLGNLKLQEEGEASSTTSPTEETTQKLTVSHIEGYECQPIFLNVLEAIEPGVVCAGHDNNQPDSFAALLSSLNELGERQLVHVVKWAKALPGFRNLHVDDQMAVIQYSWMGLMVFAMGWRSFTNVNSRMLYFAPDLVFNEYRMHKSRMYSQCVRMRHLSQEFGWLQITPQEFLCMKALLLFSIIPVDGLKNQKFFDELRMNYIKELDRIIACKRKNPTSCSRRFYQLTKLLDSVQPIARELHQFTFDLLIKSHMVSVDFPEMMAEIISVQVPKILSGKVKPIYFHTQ
Sequence (Q92793 2-2442): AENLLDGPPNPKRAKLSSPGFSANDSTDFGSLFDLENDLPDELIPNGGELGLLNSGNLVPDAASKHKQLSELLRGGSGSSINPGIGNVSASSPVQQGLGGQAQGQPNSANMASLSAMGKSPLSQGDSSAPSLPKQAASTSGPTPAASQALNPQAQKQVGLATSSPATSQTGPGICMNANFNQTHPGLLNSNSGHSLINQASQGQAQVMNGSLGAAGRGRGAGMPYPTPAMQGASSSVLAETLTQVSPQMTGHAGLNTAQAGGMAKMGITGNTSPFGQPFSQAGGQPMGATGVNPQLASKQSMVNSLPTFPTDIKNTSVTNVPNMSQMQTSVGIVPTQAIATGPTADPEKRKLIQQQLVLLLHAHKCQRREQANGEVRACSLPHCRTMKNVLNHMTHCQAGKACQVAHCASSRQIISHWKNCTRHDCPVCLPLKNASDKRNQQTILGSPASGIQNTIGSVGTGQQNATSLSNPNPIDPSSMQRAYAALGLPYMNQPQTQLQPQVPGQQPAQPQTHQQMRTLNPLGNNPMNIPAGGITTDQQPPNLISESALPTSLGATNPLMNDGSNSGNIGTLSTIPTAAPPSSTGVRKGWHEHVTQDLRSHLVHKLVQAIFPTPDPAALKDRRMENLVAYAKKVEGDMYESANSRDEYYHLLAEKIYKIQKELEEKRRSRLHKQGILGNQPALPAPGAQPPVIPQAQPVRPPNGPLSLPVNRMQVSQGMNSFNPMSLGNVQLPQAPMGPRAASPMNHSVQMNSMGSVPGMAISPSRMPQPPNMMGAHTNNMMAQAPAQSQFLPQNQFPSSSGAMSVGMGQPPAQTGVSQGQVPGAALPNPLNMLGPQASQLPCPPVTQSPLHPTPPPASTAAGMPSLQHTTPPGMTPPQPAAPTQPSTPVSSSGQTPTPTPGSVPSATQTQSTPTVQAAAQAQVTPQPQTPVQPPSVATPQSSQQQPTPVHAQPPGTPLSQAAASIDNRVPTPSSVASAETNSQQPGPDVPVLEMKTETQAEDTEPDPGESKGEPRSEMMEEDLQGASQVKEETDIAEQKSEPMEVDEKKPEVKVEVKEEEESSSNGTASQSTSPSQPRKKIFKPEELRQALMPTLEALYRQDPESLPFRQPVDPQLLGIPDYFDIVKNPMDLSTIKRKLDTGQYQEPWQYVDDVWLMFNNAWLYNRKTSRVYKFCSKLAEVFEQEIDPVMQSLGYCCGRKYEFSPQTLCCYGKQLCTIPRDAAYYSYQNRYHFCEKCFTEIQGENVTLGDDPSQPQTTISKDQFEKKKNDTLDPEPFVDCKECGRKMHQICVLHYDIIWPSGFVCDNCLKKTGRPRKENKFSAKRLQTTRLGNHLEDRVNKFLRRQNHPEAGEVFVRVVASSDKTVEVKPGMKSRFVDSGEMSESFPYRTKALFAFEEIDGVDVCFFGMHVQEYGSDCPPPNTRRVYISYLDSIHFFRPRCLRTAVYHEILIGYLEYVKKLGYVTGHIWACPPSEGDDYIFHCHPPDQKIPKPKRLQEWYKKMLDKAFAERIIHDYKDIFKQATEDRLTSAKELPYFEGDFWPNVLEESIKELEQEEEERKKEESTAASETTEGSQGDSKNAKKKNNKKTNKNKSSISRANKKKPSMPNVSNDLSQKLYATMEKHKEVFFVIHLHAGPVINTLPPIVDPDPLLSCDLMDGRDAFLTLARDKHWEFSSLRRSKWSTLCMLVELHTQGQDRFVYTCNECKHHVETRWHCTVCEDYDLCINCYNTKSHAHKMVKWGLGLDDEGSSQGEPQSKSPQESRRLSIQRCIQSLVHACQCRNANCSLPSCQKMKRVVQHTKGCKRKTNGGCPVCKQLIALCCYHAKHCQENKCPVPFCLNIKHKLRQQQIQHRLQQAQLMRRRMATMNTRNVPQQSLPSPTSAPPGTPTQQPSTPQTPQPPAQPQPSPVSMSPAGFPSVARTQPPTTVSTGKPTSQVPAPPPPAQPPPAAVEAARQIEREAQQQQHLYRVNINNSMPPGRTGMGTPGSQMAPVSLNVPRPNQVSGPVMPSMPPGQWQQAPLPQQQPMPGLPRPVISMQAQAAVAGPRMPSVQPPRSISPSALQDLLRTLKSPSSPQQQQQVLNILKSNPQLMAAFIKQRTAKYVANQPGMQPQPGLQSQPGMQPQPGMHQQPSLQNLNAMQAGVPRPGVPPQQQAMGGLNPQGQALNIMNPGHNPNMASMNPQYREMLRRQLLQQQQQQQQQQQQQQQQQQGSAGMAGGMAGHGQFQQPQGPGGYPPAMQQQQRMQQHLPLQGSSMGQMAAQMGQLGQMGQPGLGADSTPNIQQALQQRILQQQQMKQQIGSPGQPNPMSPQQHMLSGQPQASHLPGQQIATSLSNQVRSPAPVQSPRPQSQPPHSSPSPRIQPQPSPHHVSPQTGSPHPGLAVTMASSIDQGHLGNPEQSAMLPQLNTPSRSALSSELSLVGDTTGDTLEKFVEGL
protocol description: Ternary complex formation assay (sandwich ELISA, AR capture, CBP antibody detection) in VCaP cell lysates
Format: cell-based
condition label: treated 1.5 hours, rabbit CBP or p300 antibody detection, average, read-out: Average Ternary Complex
pEC50: −log10 of the molar value.
Measured pEC50, listed per entry for reference.

These recorded examples may help you get a feel for the data.
Query (compound): COc1cc(O[C@H]2CC[C@H](NC(=O)c3ccc(N4CC5(CCC(N6CCC(n7nc(N8CCCc9cc(-c%10cnn(C)c%10)c(C)cc98)c8c7CCN(C(C)=O)C8)CC6)CC5)C4)nn3)CC2)ccc1C#N ; field requested: pEC50
> 9.00

Bench note: what pEC50 did COC(=O)N1c2ccc3c(nc(Cc4ccccc4)n3[C@@H]3CCC[C@H](OCCN4CCN(c5ccc(C(=O)N[C@H]6CC[C@H](Oc7ccc(C#N)c(Cl)c7)CC6)nn5)CC4)C3)c2CC[C@@H]1C show?
8.00 to 9.00

Consider the compound shown here: CC(=O)N1CCc2c(c(N3CCCc4cc(-c5ccc(CCC6CCN(c7ccc(C(=O)N[C@H]8CC[C@H](Oc9ccc(C#N)c(Cl)c9)CC8)cn7)CC6)cc5)c(C(F)F)cc43)nn2C2CCOCC2)C1 What is its recorded pEC50?
7.00 to 8.00

If you can, please state the reported pEC50 value of C[C@@H]1CC(=O)Nc2cc(C3CCN(CC4CCN(c5ccc(C(=O)N[C@H]6CC[C@H](Oc7ccc(C#N)c(Cl)c7)CC6)nn5)CC4)CC3)cc(-c3ccc4c(c3)c(C3CC3)nn4C)c2N1 .
8.00 to 9.00

---
Report pEC50 for CC(=O)N1CCc2c(c(-c3cccc4cc(-c5cnn(C)c5)ncc34)nn2C2CCN(CC3CCN(c4ccc(C(=O)N[C@H]5CC[C@H](Oc6ccc(C#N)c(Cl)c6)CC5)nn4)CC3(C)C)CC2)C1 (stereo partly drawn) please.
> 9.00

Which pEC50 is reported for this compound? CC(=O)N1CCc2c(c(N3CCCc4cc(-c5ccc(N6CCC(N7CCN(c8ccc(C(=O)N[C@H]9CC[C@H](Oc%10ccc(C#N)c(Cl)c%10)CC9)nn8)CC7)CC6)nc5)c(C(F)F)cc43)nn2C2CCOCC2)C1
> 9.00

Give the measured pEC50 of CC(=O)N1CCc2c(c(N3CCCc4cc(-c5ccc(N6CC(N7CCN(c8ccc(C(=O)N[C@H]9CC[C@H](Oc%10ccc(C#N)c(Cl)c%10)CC9)nn8)CC7)C6)nc5)c(C(F)F)cc43)nn2C2CCOCC2)C1 .
> 9.00

Returns the measured pEC50 for the input compound. Input: CC(=O)N1CCc2c(c(N3CCCc4cc(C#N)c(C(F)F)cc43)nn2C2CCN(C[C@H]3[C@H](C)CN(c4ccc(C(=O)N[C@H]5CC[C@H](Oc6ccc(C#N)c(Cl)c6)CC5)nn4)C[C@@H]3C)CC2)C1
> 9.00

Record request: pEC50 value, item Cc1noc(C)c1-c1ccc2c(c1)nc(C1CCCC(=O)N1c1ccc(F)c(F)c1)n2C1CCN(CC2CCN(c3ccc(C(=O)N[C@H]4CC[C@H](Oc5ccc(C#N)c(Cl)c5)CC4)nn3)CC2)CC1 (stereo partly drawn)
< 7.00

// pEC50 lookup, key: CC(=O)N1CCc2c(c(N3CCCc4cc(C#N)ccc43)nn2C2CCN(C(=O)C3CCN(c4ccc(C(=O)N[C@H]5CC[C@H](Oc6ccc(C#N)c(Cl)c6)CC5)nn4)CC3)CC2)C1
> 9.00

Quick one: pEC50 of Cc1cc2c(N3CCN(C)c4cc(-c5cnn(C)c5)c(C#N)cc43)cc(OCCC3CCN(c4ccc(C(=O)N[C@H]5CC[C@H](Oc6ccc(C#N)c(Cl)c6)CC5)nn4)CC3)cc2n(C)c1=O ?
< 7.00

Given the entry CC(=O)N1CCc2c(c(N3CCCc4cc(-c5cnn(C)c5)c(C)cc43)nn2C2CCN(C3CCC4(CC3)CN(c3ccc(C(=O)N[C@H]5CC[C@H](Oc6ccc(C#N)c(Cl)c6)CC5)nn3)C4)CC2)C1 , report its measured pEC50.
> 9.00

What does the data say about its pEC50? Entry: COc1cc(O[C@H]2CC[C@H](NC(=O)c3ccc(N4CCC(CN5CCC(n6nc(N7CCCc8cc(-c9cnn(C)c9)c(C(F)F)cc87)c7c6CCN(C(C)=O)C7)CC5)CC4)cc3)CC2)ccc1C#N
> 9.00

----------
Below, each entry is listed alongside its reported pIC50.
System: VCaP cells
protocol description: VCaP growth inhibition assay (CTG)
Format: cell-based
condition label: Homo sapiens, 216 h, 30 pM R1881, 9 days
pIC50: −log10 of the molar value.

# query: pIC50 of entry CC(=O)N1CCc2c(c(N3CCCc4cc(-c5cnn(C)c5)c(C(F)F)cc43)nn2C2CCN(CC3CC4CC3CN4c3ccc(C(=O)N[C@H]4CC[C@H](Oc5ccc(C#N)c(Cl)c5)CC4)nn3)CC2)C1 (stereo partly drawn)
≥ 10.00

----------
pIC50 values for the compounds below.
System: VCaP cells
protocol description: VCaP growth inhibition assay (CTG)
Format: cell-based
condition label: Homo sapiens, 216 h, 30 pM R1881, 9 days
pIC50: −log10 of the molar value.

Below, each entry is followed by its recorded pIC50 result.
Reported pIC50, compound CC(=O)N1CCc2c(c(N3CCCc4cc(-c5cnn(C)c5)c(C(F)F)cc43)nn2C2CCN(C[C@@H]3CCN(c4ccc(C(=O)N[C@H]5CC[C@H](Oc6ccc(C#N)c(Cl)c6)CC5)nn4)C[C@@H]3C)CC2)C1 : ____
≥ 10.00

pIC50 for CC(=O)N1CCc2c(c(N3CCCc4cc(-c5cnn(C)c5)c(C(F)F)cc43)nn2C2CCN(CC3CCN(c4ccc(C(=O)N[C@H]5CC[C@H](Oc6ccc(C#N)c(Cl)c6)CC5)cc4)CC3)CC2)C1 ?
≥ 10.00

For the compound CC(=O)N1CCc2c(c(N3CCCc4cc(-c5cnn(C)c5)c(C(F)F)cc43)nn2C2CCN([C@@H]3CCN(c4ccc(C(=O)N[C@H]5CC[C@H](Oc6ccc(C#N)c(Cl)c6)CC5)nn4)C3)CC2)C1 , what pIC50 is on record?
9.00 to 10.00

So what's the measured pIC50 for this one? CC(=O)N1CCc2c(c(N3CCCc4cc(-c5cnn(C)c5)ncc43)nn2C2CCN(CC3CCN(c4ccc(C(=O)N[C@H]5CC[C@H](Oc6ccc(C#N)c(Cl)c6)CC5)nn4)CC3)CC2)C1
9.00 to 10.00

Query: pIC50; subject: CC(=O)N1CCc2c(c(N3CCCc4cc(C#N)ncc43)nn2C2CCN(C(=O)C3CCN(c4ccc(C(=O)N[C@H]5CC[C@H](Oc6ccc(C#N)c(Cl)c6)CC5)nn4)CC3)CC2)C1
≥ 10.00

---
Would you mind telling me what pIC50 value was observed for CC(=O)N1CCc2c(c(-c3cccc4cc(-c5cnn(CCOC6CCN(c7ccc(C(=O)N[C@H]8CC[C@H](Oc9ccc(C#N)c(Cl)c9)CC8)nn7)CC6)c5)ncc34)nn2C2CCOCC2)C1 ?
≥ 10.00

Need pIC50 of CC(=O)N1CCc2c(c(N3CCCc4cc(-c5cnn(C)c5)c(C(F)F)cc43)nn2C2CC3(C2)CN(C(=O)C2CC4(C2)CN(c2ccc(C(=O)N[C@H]5CC[C@H](Oc6ccc(C#N)c(Cl)c6)CC5)nn2)C4)C3)C1 (stereo partly shown) , thanks.
9.00 to 10.00

Fill in the blank: the reported pIC50 of CC(=O)N1CCc2c(c(N3CCCc4cc(-c5cnn(C)c5)c(C(F)F)cc43)nn2[C@@H]2[C@@H]3C[C@H]2CN(CC2CCN(c4ccc(C(=O)N[C@H]5CC[C@H](Oc6ccc(C#N)c(Cl)c6)CC5)nn4)CC2)C3)C1 is ____.
9.00 to 10.00

I'd like to know its pIC50. The compound in question is CC(=O)N1CCc2c(c(N3CCCc4cc(C5CC5)ncc43)nn2C2CCN(CC3CCN(c4ccc(C(=O)N[C@H]5CC[C@H](Oc6ccc(C#N)c(Cl)c6)CC5)nn4)CC3)CC2)C1
9.00 to 10.00

Which measured pIC50 value corresponds to CC(=O)N1CCc2c(c(-c3cccc4cc(-c5cnn(CC6CCN(c7ccc(C(=O)N[C@H]8CC[C@H](Oc9ccc(C#N)c(Cl)c9)CC8)nn7)CC6)c5)ncc34)nn2C)C1 ?
≥ 10.00

Which value of pIC50 has been reported for Cn1c(=O)sc2ccc(N3CCCc4cc(-c5ccc(CCC6CCN(c7ccc(C(=O)N[C@H]8CC[C@H](Oc9ccc(C#N)c(Cl)c9)CC8)nn7)CC6)nc5)ncc43)cc21 in the records?
7.00 to 9.00

----------
# Lookup of reported pIC50 keyed by entry
Tested on: VCaP cells
protocol description: VCaP growth inhibition assay (CTG)
Format: cell-based
condition label: Homo sapiens, 216 h, 30 pM R1881, 9 days
pIC50: −log10 of the molar value.

# query: pIC50 of entry CC(=O)N1CCc2c(c(-c3cccc4cc(-c5cnn(C)c5)ncc34)nn2C2CN(CC3CCN(c4ccc(C(=O)N[C@H]5CC[C@H](Oc6ccc(C#N)c(Cl)c6)CC5)nn4)CC3)C2)C1 [Compound 4]
≥ 10.00

Further cases:
Which value of pIC50 has been reported for CC(=O)N1CCc2c(c(-c3cccc4cc(-c5ccc(CCC6CCN(c7ccc(C(=O)N[C@H]8CC[C@H](Oc9ccc(C#N)c(Cl)c9)CC8)nn7)CC6)cc5)ncc34)nn2C2CCOCC2)C1 [Compound 153] in the records?
≥ 10.00

pIC50 lookup needed for CC(=O)N1CCc2c(c(N3CCCc4cc(-c5cnn(C)c5)c(C)cc43)nn2C2CCN(CC3CCN(c4ccc(C(=O)N[C@H]5CC[C@H](Oc6ccc(C#N)c(Cl)c6C)CC5)nn4)CC3(C)C)CC2)C1 (stereo partly drawn) [Compound 291] , thanks.
≥ 10.00
